# SYSTEM: CYP1A2 (Homo sapiens)
# Sequence (P05177 1-516): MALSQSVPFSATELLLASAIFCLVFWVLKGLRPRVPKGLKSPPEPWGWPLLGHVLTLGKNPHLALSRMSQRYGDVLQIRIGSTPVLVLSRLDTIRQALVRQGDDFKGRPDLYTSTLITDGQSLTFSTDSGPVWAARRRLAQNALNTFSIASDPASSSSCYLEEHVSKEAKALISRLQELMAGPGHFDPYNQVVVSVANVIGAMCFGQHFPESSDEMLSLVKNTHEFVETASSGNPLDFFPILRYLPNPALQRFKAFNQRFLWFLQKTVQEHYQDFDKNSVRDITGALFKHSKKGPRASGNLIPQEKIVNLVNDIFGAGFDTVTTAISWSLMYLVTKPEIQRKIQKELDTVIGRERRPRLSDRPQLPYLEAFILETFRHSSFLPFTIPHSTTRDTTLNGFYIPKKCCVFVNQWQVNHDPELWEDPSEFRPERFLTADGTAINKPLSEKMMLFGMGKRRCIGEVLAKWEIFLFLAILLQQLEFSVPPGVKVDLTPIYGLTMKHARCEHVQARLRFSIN
# MEASUREMENT_PROTOCOL: Mechanism-based inhibition of human CYP1A2 in vitro
# Assay type: in vitro ADME
# COND: read-out: K1 (inactivation constant)
RESULT_TYPE: KI (inactivation) (µM)
All answers are understood in µM, so give the number only.

Indicate the recorded KI (inactivation) value for this molecule: C#Cc1cnc2nc(O)n(C(CC)CC)c2n1 [CK-2017357]
1.9

###

# MEASUREMENT_PROTOCOL: clinical
# COND: human, plasma, 50 mg, CK-2017357 Cmax, CK-2017357 daily dose 250 (mg), 14 days; On Riluzole (50 mg daily); ALS patients
RESULT_TYPE: Cmax (ng/mL)
All answers are understood in ng/mL, so give the number only.

Indicate the recorded Cmax value for this compound: `C#Cc1cnc2nc(O)n(C(CC)CC)c2n1`
8400

Where these numbers come from: patent US10272082B2
